B1: Pituitary-specific positive transcription factor 1, residues 130 to 198; numbered along this chain, P28069 (parent)
chain: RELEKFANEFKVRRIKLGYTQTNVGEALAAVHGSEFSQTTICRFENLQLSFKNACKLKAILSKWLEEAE

Variants of: B1
Assay: abundance fitness (aPCA) (normalised: wild type 0, dead -1); higher = more abundant; growth selection in yeast, the domain comes from the species named
Conditions: Homo sapiens
Readings of abundance fitness for the listed variants
Response field accepts a number only; no unit should be typed.

Before answering, review these 5 worked examples.
R14H; -0.253
V12P; -0.772
G33R; -0.835
S37L; -0.682
Y19W; -0.283

Now consider a different variant.
Field abundance fitness (entry "K63L" ) reads -0.3

Cited source for all entries: the Human Domainome abundance scans (Beltran et al. 2025)
